measurement.description: Permeability of the compound at donor pH 6.2 and acceptor pH 7.4 by PAMPA
Type: ADME
Parameter permeability: see the listing below.
Use ×10⁻⁶ cm/s as the unit, but write only the number.

                                smiles_data  meas_value
0      CN(C)C(=O)c1cccc(-n2sc3ccccc3c2=O)c1          92
1         COC(=O)c1cccc(-n2sc3ccccc3c2=O)c1        1231
2  CN(C)S(=O)(=O)c1cccc(-n2sc3ccccc3c2=O)c1         817

For "O=C(O)c1cccc(-n2sc3ccccc3c2=O)c1" , what is its reported permeability? 18

====

Some compounds, each annotated with its measured permeability.
measurement.description: Permeability of the compound at donor pH 7.4 and acceptor pH 7.4 by PAMPA
Assay type: ADME
Just the number in ×10⁻⁶ cm/s, nothing appended.

# example entries with known answers
In [3]: df
Out[3]:
                            smiles_data  meas_value
0     COC(=O)c1cccc(-n2sc3ccccc3c2=O)c1        1300
1  CN(C)C(=O)c1cccc(-n2sc3ccccc3c2=O)c1          97

GET /values?readout=permeability&item= "CN(C)S(=O)(=O)c1cccc(-n2sc3ccccc3c2=O)c1" 777
